# Method Notes: small-molecule microarray binders of probe aCHRDL2, primary screen, biochemical, biotinylated probe, 635/667 nm fluorescence (AID 1100)
# Condition Set: higher = more signal
I'd be grateful if you could share measured composite z-score for these entries.
Answers are plain numbers.

Reference set, count: 3
[[record]]
molecule = "[N-]=[N+]=NCc1ccccc1C[C@]1(C(=O)NCC(O)CO)N=C(c2ccc(OCCCO)cc2)O[C@H]1c1ccccc1 (some centres undefined)"
result = 0.889

[[record]]
molecule = "COc1ccc([Si](C)(C)[C@H]2[C@H](CC(=O)N3CCC[C@H]3CO)O[C@@]3(C(=O)N(Cc4cccc(N5C(=O)c6cccc7cccc5c67)c4)c4ccccc43)[C@@H]2C)cc1"
result = -0.098

[[record]]
molecule = "COc1ccc(C(=O)O[C@H]2CC[C@]3(C)C4=C(CCC3C2(C)C)[C@]2(C)CC[C@H]([C@H](C)CCCC(C)C)[C@@]2(C)CC4)cc1 (some centres undefined)"
result = -0.384


Consider now this further molecule.
composite z-score reading for CO[C@H]1O[C@H](CO)[C@@H](OC(=O)Nc2ccc(Br)cc2)[C@H](OC(=O)c2cc3ccccc3[nH]2)[C@H]1OC(=O)c1cc2ccccc2[nH]1 : 0.24

###

I'd be grateful if you could share measured composite z-score for these entries.
# Assay Target: Follistatin-related protein 3 (Homo sapiens)
# Method Notes: FSTL3 binders on small-molecule microarrays, primary screen, biochemical, small-molecule microarray, 635 nm fluorescence (AID 1105);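 also: score merges emission near 667 nm and signal to noise per printed spot across three slides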
# Condition Set: FSTL3 binding, higher = more signal

Reference set, count: 3
[[record]]
molecule = "CN(C)C(=O)[C@]1(Cc2ccccc2CN=[N+]=[N-])N=C(c2ccc(OCCCO)cc2)O[C@@H]1c1ccccc1CN=[N+]=[N-]"
assay_target = "Follistatin-related protein 3 (Homo sapiens)"
readout_type = "composite z-score"
result = 1.18

[[record]]
molecule = "CC[C@@H]1C=C(C(=O)O)[C@H](c2ccco2)N1S(=O)(=O)c1ccc(C)cc1"
assay_target = "Follistatin-related protein 3 (Homo sapiens)"
readout_type = "composite z-score"
result = 0.291

[[record]]
molecule = "O=C1O[C@H](c2ccccc2)[C@H](c2ccccc2)N2[C@H]1[C@@H](C(=O)NC[C@H](O)c1ccccc1)[C@]1(C(=O)Nc3ccccc31)[C@H]2c1ccc(OCCO)cc1"
assay_target = "Follistatin-related protein 3 (Homo sapiens)"
readout_type = "composite z-score"
result = 0.464


Please look at the items below and tell me composite z-score for each one, in order.
1. O=C1NC(=O)C2C1C=CC(C(O)C(c1ccccc1)c1ccccc1)N2Nc1ccc(Cl)cc1Cl (configuration not stated)
2. COCCOC(=O)N1C(=O)[C@@]2(c3cc(C#CC4(O)CCCCCC4)ccc31)[C@H](c1ccc(O)cc1)N1[C@H](c3ccccc3)[C@H](c3ccccc3)OC(=O)[C@H]1[C@@H]2C(=O)Nc1nc2ccccc2s1
3. CN(C)CCCCCCNC(=O)[C@@H]1C[C@@H]2C(=O)N[C@@H](CCCCN)C(=O)N2[C@@H]1c1cccc(OCCO)c1
4. COC(=O)[C@@]1(Cc2ccc(F)cc2)[C@H]2c3cc(C(=O)N4CCCC4)n(Cc4cc(C)n(C)n4)c3C[C@H]2CN1C(=O)c1ccccc1
5. OC([C@@H]1CC(c2ccccc2)=NO1)[C@H]1CC(c2ccccc2)=NO1 (some centres not stated)

Outgoing:
1: 0.908; 2: 1.38; 3: 1.66; 4: -0.261; 5: 0.031

Please look at the items below and tell me composite z-score for each one, in order.
1. COCCOC(=O)N1C(=O)[C@@]2(c3cc(C#CC4=CCCCC4)ccc31)[C@H](c1ccc(O)cc1)N1[C@H](c3ccccc3)[C@H](c3ccccc3)OC(=O)[C@H]1[C@@H]2C(N)=O
2. CN(C)C(=O)[C@@]1(Cc2ccccc2CN=[N+]=[N-])N=C(c2ccc(OCCCO)cc2)O[C@H]1c1ccccc1
3. O=C1OCC=C[C@H]2OC34C=CCN(CCN5CCOCC5)C(=O)[C@H]3N(CCCO)C(=O)[C@@H]4[C@@H]12 (some centres not stated)
4. COC(=O)[C@@]1(Cc2ccc(OC)cc2)[C@H]2c3cc(C(=O)N(C)C)n(CCN4CNCC4=O)c3C[C@H]2CN1C(=O)c1ccccc1
5. C=CCN1C(=O)[C@@]2(O[C@@H](CCO)[C@H]([Si](C)(C)c3ccc(OC)cc3)[C@H]2C)c2cc(NC(=O)c3ccc(OC)cc3)ccc21

Outgoing:
1: 1.16; 2: -0.283; 3: 0.292; 4: -0.153; 5: 0.722

Please look at the items below and tell me composite z-score for each one, in order.
1. COc1ccc([Si](C)(C)[C@@H]2[C@@H](CC(=O)N3Cc4ccccc4C[C@H]3CO)O[C@]3(C(=O)N(C)c4c(Br)cc(C)cc43)[C@H]2C)cc1
2. COCCOC(=O)N1C(=O)[C@@]2(c3cc(C#CC4=CCCCC4)ccc31)[C@H](C(=O)Nc1nc3ccccc3s1)[C@H]1C(=O)O[C@H](c3ccccc3)[C@H](c3ccccc3)N1[C@@H]2c1ccc(OCCO)cc1

Outgoing:
1. 1.08
2. 0.908

Please look at the items below and tell me composite z-score for each one, in order.
1. COCC(=C=CC[C@@H](O)c1ccccc1OCCO)C[C@@H](O)c1cc(Cl)cc(Cl)c1O
2. [N-]=[N+]=NCc1ccccc1C[C@]1(C(=O)O)N=C(c2ccc(OCCCO)cc2)O[C@H]1c1ccccc1N=[N+]=[N-]
3. C=CCOC(=O)[C@@H]1[C@H]2C(=O)O[C@H](c3ccccc3)[C@H](c3ccccc3)N2[C@H](c2ccc(OCCOC(=O)[C@@H]3C[C@@H]4C(=O)N[C@@H](CCCC[N+](C)(C)C)C(=O)N4[C@@H]3c3cccc(OCCO)c3)cc2)[C@@]12C(=O)Nc1ccc(I)cc12

Outgoing:
1. 1.23
2. 0.737
3. 1.25

Please look at the items below and tell me composite z-score for each one, in order.
1. COCCOC(=O)N1C(=O)[C@@]2(c3cc(C#CCCO)ccc31)[C@H](C(=O)N1CCN(c3ncccn3)CC1)[C@H]1C(=O)O[C@H](c3ccccc3)[C@H](c3ccccc3)N1[C@@H]2c1ccccc1OCCO
2. COc1ccc(C(O)C2C=CC3C(=O)N(c4ccccc4)C(=O)C3N2Nc2ccccc2F)cc1OCc1ccccc1 (configuration not stated)
3. CCOC(=O)C=Cc1cc([N+](=O)[O-])ccc1O
4. CC(C)c1ccc(NN2C(C(O)c3cc(C(F)(F)F)cc(C(F)(F)F)c3)C=CC3C(=O)N(c4ccccc4)C(=O)C32)cc1 (configuration not stated)
5. COC(=O)[C@@]1(Cc2ccc(OC)cc2)[C@H]2c3cc(C(=O)N4CCCC4)n(Cc4ccc(OC)c(OC)c4)c3C[C@H]2CN1C(=O)c1ccccc1

Outgoing:
1. 0.751
2. 0.711
3. -0.971
4. -0.486
5. 1.42

Please look at the items below and tell me composite z-score for each one, in order.
1. O=C(NCc1ccccc1)[C@@]1(CCS(=O)(=O)c2ccccc2)N=C(c2ccc(OCCCO)cc2)O[C@H]1c1ccccc1
2. COC(=O)C(CC#Cc1ccc2c(c1)[C@]1(C(=O)N2)[C@H](C(=O)O)[C@H]2C(=O)O[C@H](c3ccccc3)[C@H](c3ccccc3)N2[C@@H]1c1ccc(O)cc1)C(=O)OC
3. CC1CC/C=C\[C@H]2OC34C=CCN(c5ccc(Cl)cc5)C(=O)[C@H]3N(CCO)C(=O)[C@]4(C)C2C(=O)O1 (some centres not stated)
4. COc1cc2c(cc1O)C=[N+](Cc1cccc(OC(F)(F)F)c1)CC2

Outgoing:
1. 0.866
2. -0.662
3. -0.646
4. 0.534

###

# Method Notes: basal RPMI8226 mitochondrial membrane potential changes, profiling panel, cell-based, JC-1 fluorescence, 24 h, 100 nL compound (AID 1169); also: test concentration not given here
# Condition Set: RPMI8226 myeloma, JC-1 mitochondrial potential fluorescence, higher = more signal
# label = Yes if z-score >= -0.2 else No

Please review the following examples before continuing.
[[record]]
compound = "COc1ccc(C(O)C2C=CC3C(=O)NC(=O)C3N2Nc2ccccn2)cc1 (stereo not given)"
group_label = "Yes"

[[record]]
compound = "C=CCOC(=O)[C@@H]1[C@H]2C(=O)O[C@H](c3ccccc3)[C@H](c3ccccc3)N2[C@H](c2ccc(OCCOC(=O)[C@@H]3C[C@@H]4C(=O)N5CCC[C@H]5C(=O)N4[C@@H]3c3ccc(O)cc3)cc2)[C@@]12C(=O)Nc1ccc(I)cc12"
group_label = "No"


Incoming: Could you tell me if the measured z-score of C=CCNC(=O)[C@H]1[C@@H]2C(=O)O[C@@H](c3ccccc3)[C@@H](c3ccccc3)N2[C@@H](c2ccc(OCCO)cc2)[C@]12C(=O)Nc1ccc(C#CC3=CCCCC3)cc12 reaches -0.2 or more?
Outgoing: No

Incoming: Could you tell me if the measured z-score of C#CCN(CC=C(C)C)[C@H](CO)c1ccccc1 reaches -0.2 or more?
Outgoing: No

Incoming: Could you tell me if the measured z-score of CC(C)OC(=O)C=C1C[C@@H](c2ccccc2C(F)(F)F)O[C@@H](c2ccccc2C(F)(F)F)O1 reaches -0.2 or more?
Outgoing: Yes

Incoming: Could you tell me if the measured z-score of COC(=O)[C@@]1(Cc2ccc(OC)cc2)[C@H]2c3cc(C(=O)N(C)C)n(CCN4CNCC4=O)c3C[C@H]2CN1C(=O)c1ccccc1 reaches -0.2 or more?
Outgoing: Yes
